experimental setup: in cyclopentyl methyl ether, 318.15 K
readout: solubility (mole fraction)
Answers are plain numbers.

solubility (mole fraction) for CC(CO)(CO)C(=O)O ?
0.00329

====

experimental setup: in gamma-butyrolactone, 303.15 K
readout: solubility (mole fraction)
One number for each entry.

# solubility (mole fraction) lookup, item CC(CO)(CO)C(=O)O
0.00793

====

experimental setup: in 1,4-dioxane, 313.15 K
readout: solubility (mole fraction)
Numbers only.

Data request, read-out solubility (mole fraction), for CC(CO)(CO)C(=O)O
0.0147

====

experimental setup: in ethyl acetate, 338.15 K
readout: solubility (mole fraction)

Which value of solubility (mole fraction) has been reported for CC(CO)(CO)C(=O)O in the records?
0.0147
